Hello, the source for this data is patent US20250303005A1, in case you need it.

Reported Internalization values follow for various compounds
Tested on: PSMA+LNCaP cells
Assay: Cell surface binding and internalization of 177Lu labeled compounds, without or with blocking by 2-PMPA
Assay type: cell-based
Details: 7.5 pmol precursor per 10^5 cells, 45 min, without blocking (n = 3)
Starred links: 1 amine or outer side, 2 acyl side, 3 side chain; linkers in the order of their positions; H or OH if unused. Non-standard residues stand in square brackets, D forms with d. Residues, ends and D or L forms follow the SMILES beside them. ξ: configuration not given here. *: point of attachment. DOTA = O=C(O)CN1CCN(CC(=O)O)CCN(CC(=O)*)CCN(CC(=O)O)CC1; EuK = O=C(O)CC[C@H](NC(=O)N[C@@H](CCCCN*)C(=O)O)C(=O)O; X2 = O=C(O)CCC(NC(=O)NC(CCCCN*)C(=O)O)C(=O)O; 2Nal = N[C@@H](Cc1ccc2ccccc2c1)C(=O)O; ξ2Nal = NC(Cc1ccc2ccccc2c1)C(=O)O; Trx = NC[C@H]1CC[C@H](C(=O)O)CC1; X1 = O=C(C1CCC(CN[*:1])CC1)[*:2]; Sar = CNCC(=O)O
Readout: Internalization (% AR/10^5 cells)

CN(CC(=O)NCC1CCC(C(=O)NC(Cc2ccc3ccccc3c2)C(=O)NCCCCC(NC(=O)NC(CCC(=O)O)C(=O)O)C(=O)O)CC1)C(=O)CN(C)C(=O)CN(C)C(=O)CN(C)C(=O)CN(C)C(=O)CN1CCN(CC(=O)O)CCN(CC(=O)O)CCN(CC(=O)O)CC1 (stereo not shown) [DOTA-Sar5-Chx-2-NaI-Lys-urea-Glu] ({DOTA}-[Sar][Sar][Sar][Sar][Sar][X1][ξ2Nal]-X2) ... 0.10
CN(CC(=O)NC[C@H]1CC[C@H](C(=O)N[C@@H](Cc2ccc3ccccc3c2)C(=O)NCCCC[C@H](NC(=O)N[C@@H](CCC(=O)O)C(=O)O)C(=O)O)CC1)C(=O)CN(C)C(=O)CN(C)C(=O)CN1CCN(CC(=O)O)CCN(CC(=O)O)CCN(CC(=O)O)CC1 [DOTA-Sar3-Chx-2-NaI-Lys-urea-Glu] ({DOTA}-[Sar][Sar][Sar][Trx][2Nal]-EuK) ... 0.13
CN(CC(=O)NCC1CCC(C(=O)NC(Cc2ccc3ccccc3c2)C(=O)NCCCCC(NC(=O)NC(CCC(=O)O)C(=O)O)C(=O)O)CC1)C(=O)CN(C)C(=O)CN(C)C(=O)CN(C)C(=O)CN(C)C(=O)CN(C)C(=O)CN(C)C(=O)CN(C)C(=O)CN(C)C(=O)CN(C)C(=O)CN(C)C(=O)CN(C)C(=O)CN(C)C(=O)CN(C)C(=O)CN(C)C(=O)CN1CCN(CC(=O)O)CCN(CC(=O)O)CCN(CC(=O)O)CC1 (stereo not shown) [DOTA-Sar15-Chx-2-NaI-Lys-urea-Glu] ... 0.11
CN(CC(=O)NCC1CCC(C(=O)NC(Cc2ccc3ccccc3c2)C(=O)NCCCCC(NC(=O)NC(CCC(=O)O)C(=O)O)C(=O)O)CC1)C(=O)CN(C)C(=O)CN(C)C(=O)CN(C)C(=O)CN(C)C(=O)CN(C)C(=O)CN(C)C(=O)CN(C)C(=O)CN(C)C(=O)CN(C)C(=O)CN1CCN(CC(=O)O)CCN(CC(=O)O)CCN(CC(=O)O)CC1 (stereo not shown) [DOTA-Sar10-Chx-2-NaI-Lys-urea-Glu] ... 0.10
